- TESTED_TARGET: Nicotinic acetylcholine receptor alpha-4/beta-2 (Mus musculus, UniProt Q8R493+Q9ERK7)
- Sequence (Q9ERK7 whole entry): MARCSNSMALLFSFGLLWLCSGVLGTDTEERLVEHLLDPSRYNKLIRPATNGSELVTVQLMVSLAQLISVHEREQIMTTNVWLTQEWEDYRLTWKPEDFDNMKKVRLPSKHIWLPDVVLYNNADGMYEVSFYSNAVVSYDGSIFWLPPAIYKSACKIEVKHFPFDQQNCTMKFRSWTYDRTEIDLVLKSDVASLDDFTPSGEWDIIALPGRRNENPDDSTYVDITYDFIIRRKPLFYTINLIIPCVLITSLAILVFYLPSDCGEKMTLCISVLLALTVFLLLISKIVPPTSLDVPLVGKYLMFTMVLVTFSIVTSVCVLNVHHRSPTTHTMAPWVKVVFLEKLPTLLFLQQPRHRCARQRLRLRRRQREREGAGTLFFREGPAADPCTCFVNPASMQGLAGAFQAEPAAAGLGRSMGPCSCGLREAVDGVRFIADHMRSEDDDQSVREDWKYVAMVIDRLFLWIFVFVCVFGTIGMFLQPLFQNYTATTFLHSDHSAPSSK
- Sequence (Q8R493 whole entry): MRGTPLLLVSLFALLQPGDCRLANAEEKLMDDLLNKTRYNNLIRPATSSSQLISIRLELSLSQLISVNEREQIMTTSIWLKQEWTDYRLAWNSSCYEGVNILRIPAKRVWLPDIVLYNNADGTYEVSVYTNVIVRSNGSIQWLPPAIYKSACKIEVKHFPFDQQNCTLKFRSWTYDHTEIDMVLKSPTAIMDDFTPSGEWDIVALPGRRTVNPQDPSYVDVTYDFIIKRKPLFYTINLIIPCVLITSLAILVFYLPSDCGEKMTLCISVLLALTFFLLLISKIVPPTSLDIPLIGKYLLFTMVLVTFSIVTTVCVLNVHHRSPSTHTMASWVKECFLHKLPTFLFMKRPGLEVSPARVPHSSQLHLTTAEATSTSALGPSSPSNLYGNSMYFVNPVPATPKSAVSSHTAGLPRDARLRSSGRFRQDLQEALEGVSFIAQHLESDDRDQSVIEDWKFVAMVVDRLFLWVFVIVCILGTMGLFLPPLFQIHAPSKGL
- MEASUREMENT_DESCRIPTION: Antagonist activity at mouse alpha4/beta2 nAChR expressed in HEK293 cells assessed as inhibition of (S)-nicotine-induced activity by FLIPR membrane potential blue assay
ENDPOINT_LABEL: pIC50
Lab note: report pIC50 as minus log10 of the concentration in molar units, number only.

Before answering, review these 5 worked examples.
-- ask Look up pIC50: c1c2c(cc3c1OCO3)[C@]13CCCC[C@H]1CCN3CC2 (relative stereo)
-- reply 5.04

-- ask Form field: reported pIC50 of COc1cc2c(cc1O)[C@]13CCCC[C@H]1CCN3CC2 (relative stereo)
-- reply 5.54

-- ask Entry COc1cc2c(cc1OC)CN(C)CC2 : reported pIC50 = ?
-- reply 4.92

-- ask Query (compound): COc1cc2c(cc1O)CCN1CC[C@@H]3CCCC[C@@]231 (relative stereo) ; field requested: pIC50
-- reply 5.64

-- ask Given the entry Oc1cc2c(cc1O)C1CCCN1CC2 (racemic) , report its measured pIC50.
-- reply 4.00

Others:
-- ask GET /values?readout=pIC50&item= COc1cc2c(cc1O)CCN1CCCC21 (racemic)
-- reply 4.30

-- ask # get_value(readout='pIC50', item= CN1CCc2cc(O)c(O)cc2C1 )
-- reply 4.80

* * *

- TESTED_TARGET: Neuronal acetylcholine receptor; alpha4/beta2 (Homo sapiens, UniProt P17787+P43681)
- Sequence (P17787 whole entry): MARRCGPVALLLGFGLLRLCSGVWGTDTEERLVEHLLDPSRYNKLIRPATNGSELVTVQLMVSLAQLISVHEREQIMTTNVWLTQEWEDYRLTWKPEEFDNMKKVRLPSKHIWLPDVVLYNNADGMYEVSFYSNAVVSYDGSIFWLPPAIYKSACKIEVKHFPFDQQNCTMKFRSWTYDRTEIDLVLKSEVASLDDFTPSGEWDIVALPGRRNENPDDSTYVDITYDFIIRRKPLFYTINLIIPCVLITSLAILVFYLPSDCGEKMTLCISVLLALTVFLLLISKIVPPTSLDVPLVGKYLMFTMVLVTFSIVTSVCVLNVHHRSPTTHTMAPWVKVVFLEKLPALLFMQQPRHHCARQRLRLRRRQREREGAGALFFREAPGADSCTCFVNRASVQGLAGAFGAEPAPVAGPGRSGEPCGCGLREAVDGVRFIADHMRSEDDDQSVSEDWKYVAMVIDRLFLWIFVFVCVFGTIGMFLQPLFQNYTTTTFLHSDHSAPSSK
- Sequence (P43681 whole entry): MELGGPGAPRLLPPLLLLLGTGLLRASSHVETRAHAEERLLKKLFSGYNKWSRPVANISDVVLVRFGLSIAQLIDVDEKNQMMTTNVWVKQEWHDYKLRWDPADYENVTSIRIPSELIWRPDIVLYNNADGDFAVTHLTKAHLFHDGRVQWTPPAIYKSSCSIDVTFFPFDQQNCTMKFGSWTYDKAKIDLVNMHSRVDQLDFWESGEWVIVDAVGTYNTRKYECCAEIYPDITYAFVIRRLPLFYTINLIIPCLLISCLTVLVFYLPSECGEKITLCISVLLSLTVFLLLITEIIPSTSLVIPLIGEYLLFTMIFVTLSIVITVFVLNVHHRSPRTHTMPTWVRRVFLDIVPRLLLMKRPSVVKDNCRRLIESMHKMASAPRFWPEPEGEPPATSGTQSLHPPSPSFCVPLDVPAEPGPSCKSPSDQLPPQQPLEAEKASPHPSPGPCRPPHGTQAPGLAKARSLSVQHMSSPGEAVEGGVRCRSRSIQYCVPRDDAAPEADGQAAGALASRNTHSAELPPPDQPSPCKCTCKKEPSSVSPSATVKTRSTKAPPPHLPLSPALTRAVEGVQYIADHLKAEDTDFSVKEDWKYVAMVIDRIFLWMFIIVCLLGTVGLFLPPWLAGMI
- MEASUREMENT_DESCRIPTION: Displacement of [3H]cytisine from alpha4/beta2 nAChR (unknown origin)
ENDPOINT_LABEL: Ki (nM)
Kindly answer with a numeric value in nM, unit omitted.

-- ask Fill in: Ki of COc1cc2c(cc1OC)[C@]13C[C@@H](OC)C=CC1=CCN3CC2 is ___
-- reply 600

* * *

Reported Ki values are given for each entry in this list.
- TESTED_TARGET: Neuronal acetylcholine receptor; alpha4/beta4 (Rattus norvegicus, UniProt P09483+P12392)
- Sequence (P09483 whole entry, one chain of several): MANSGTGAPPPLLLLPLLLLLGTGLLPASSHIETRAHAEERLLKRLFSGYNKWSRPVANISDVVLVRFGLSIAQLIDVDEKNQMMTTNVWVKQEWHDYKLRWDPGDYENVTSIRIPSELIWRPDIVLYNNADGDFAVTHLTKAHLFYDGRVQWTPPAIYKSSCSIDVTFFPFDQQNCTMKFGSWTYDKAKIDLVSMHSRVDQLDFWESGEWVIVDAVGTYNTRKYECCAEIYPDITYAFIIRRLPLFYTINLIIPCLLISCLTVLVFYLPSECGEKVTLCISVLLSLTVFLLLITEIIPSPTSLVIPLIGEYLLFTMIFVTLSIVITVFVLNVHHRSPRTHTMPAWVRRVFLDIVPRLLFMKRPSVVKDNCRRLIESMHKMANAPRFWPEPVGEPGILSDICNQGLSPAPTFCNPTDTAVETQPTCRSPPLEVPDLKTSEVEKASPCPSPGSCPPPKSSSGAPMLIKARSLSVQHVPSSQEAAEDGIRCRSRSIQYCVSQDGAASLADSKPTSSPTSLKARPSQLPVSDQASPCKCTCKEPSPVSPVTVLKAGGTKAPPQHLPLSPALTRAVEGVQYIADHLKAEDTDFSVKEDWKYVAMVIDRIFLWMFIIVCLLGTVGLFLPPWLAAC
- MEASUREMENT_DESCRIPTION: Displacement of [3H]epibatidine from rat alpha4/beta4 nAChR expressed in HEK293 cells
Reply with just the number (in µM).

Look over these answered cases.
-- ask Entry c1c2c(cc3c1OCO3)C1CCCN1CC2 (racemic) : reported Ki = ?
-- reply 21

-- ask Entry COc1cc2c(cc1O)CCN1CC[C@@H]3CCCC[C@@]231 (relative stereo) : reported Ki = ?
-- reply 50

Further cases:
-- ask Given the entry COc1cc2c(cc1O)C1CCCN1CC2 (racemic) , report its measured Ki.
-- reply 100

-- ask Form field: reported Ki of COc1cc2c(cc1OC)CN(C)CC2
-- reply 300

* * *

- TESTED_TARGET: UniProt P31645
- Sequence (P31645 whole entry): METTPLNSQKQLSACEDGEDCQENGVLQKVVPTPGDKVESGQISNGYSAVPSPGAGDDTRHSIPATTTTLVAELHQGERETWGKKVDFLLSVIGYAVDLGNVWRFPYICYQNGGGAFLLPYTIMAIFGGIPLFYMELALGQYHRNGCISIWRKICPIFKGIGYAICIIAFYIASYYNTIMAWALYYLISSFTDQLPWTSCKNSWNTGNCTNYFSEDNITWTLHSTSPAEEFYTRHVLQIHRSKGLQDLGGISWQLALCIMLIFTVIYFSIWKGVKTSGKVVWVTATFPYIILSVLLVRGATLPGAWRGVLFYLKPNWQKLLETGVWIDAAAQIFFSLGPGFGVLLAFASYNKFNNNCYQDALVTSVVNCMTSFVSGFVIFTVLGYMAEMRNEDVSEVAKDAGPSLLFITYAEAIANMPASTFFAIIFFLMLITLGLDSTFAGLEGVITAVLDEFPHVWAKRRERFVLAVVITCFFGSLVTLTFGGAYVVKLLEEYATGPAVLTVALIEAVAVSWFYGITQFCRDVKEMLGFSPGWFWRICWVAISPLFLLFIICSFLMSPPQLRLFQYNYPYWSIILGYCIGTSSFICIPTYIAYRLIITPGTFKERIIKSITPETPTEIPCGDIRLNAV
ENDPOINT_LABEL: pKi
When answering, recall that pKi equals minus log10 of the concentration in mol/L, and write that number alone.

-- ask Form field - read-out: pKi; system: UniProt P31645; submitted item: COc1cc2c(cc1OC)CN(C)CC2
-- reply 4.33

* * *

- TESTED_TARGET: Neuronal acetylcholine receptor; alpha3/beta4 (Rattus norvegicus, UniProt P04757+P12392)
- Sequence (P04757 whole entry): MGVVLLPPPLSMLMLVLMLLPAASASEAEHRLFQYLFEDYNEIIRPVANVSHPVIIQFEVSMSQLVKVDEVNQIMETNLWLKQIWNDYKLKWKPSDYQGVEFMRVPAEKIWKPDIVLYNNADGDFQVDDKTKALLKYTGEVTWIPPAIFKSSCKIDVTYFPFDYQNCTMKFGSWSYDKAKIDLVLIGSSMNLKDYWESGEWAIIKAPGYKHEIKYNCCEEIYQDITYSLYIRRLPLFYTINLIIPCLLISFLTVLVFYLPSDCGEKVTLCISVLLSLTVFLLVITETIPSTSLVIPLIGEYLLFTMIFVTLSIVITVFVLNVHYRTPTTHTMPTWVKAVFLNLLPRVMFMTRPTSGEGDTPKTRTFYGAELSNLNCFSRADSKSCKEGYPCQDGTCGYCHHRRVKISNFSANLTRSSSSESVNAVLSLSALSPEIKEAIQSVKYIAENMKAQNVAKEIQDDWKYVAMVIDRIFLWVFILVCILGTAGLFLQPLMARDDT
- Sequence (P12392 whole entry): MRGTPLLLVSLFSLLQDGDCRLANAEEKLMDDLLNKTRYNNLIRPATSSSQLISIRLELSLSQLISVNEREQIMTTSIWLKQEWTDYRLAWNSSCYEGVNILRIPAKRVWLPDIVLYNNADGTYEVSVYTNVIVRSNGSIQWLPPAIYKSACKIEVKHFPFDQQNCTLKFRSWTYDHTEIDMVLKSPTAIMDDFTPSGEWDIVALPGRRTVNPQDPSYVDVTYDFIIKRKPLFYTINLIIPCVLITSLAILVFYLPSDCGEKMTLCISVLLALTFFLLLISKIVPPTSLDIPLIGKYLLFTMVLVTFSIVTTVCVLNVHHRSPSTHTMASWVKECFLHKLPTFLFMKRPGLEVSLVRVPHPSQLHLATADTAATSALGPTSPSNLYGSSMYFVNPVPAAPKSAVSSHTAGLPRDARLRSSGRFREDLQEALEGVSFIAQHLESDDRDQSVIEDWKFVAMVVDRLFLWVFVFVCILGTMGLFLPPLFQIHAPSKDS
- MEASUREMENT_DESCRIPTION: Antagonist activity at rat alpha3/beta4 nAChR expressed in HEK293 cells assessed as inhibition of (S)-nicotine-induced activity by FLIPR membrane potential blue assay
Listed below: pIC50 values for each entry.
API: returns pIC50 as number; meaning -log10 of concentration in mol/L.

-- ask Item COc1cc2c(cc1OC)CN(C)CC2 has what recorded pIC50?
-- reply 4.00

-- ask Using the record for COc1cc2c(cc1OC)C1CCCN1CC2 (racemic) , report its pIC50.
-- reply 4.00

Query compound follows.
-- ask Form field: reported pIC50 of c1c2c(cc3c1OCO3)C1CCCN1CC2 (racemic)
-- reply 4.00

Origin of the recorded values: ChEMBL document CHEMBL3233008
